// data source = ChEMBL document CHEMBL3044740

Test system: Pseudomonas aeruginosa
Method Description: Antibacterial activity against Pseudomonas aeruginosa MTCC 2453 at 200 ug/ml by cup-plate method
Assay type: functional
Condition Set: read-out: DIZ
Measurement Name: zone of inhibition at 200 µg/mL (mm)
// return numeric value only (unit: mm, not printed)

Entry Smiles	Measurement Name	Unit Of Measurement	Assay Value
O=C1N/C(=N\c2ccc([N+](=O)[O-])cc2)S/C1=C\c1ccccc1[N+](=O)[O-]	zone of inhibition at 200 µg/mL	mm	12

Respond only with zone of inhibition at 200 µg/mL recorded for O=C1N/C(=N\c2ccccc2[N+](=O)[O-])S/C1=C\c1cccc([N+](=O)[O-])c1
15

Respond only with zone of inhibition at 200 µg/mL recorded for O=C1N/C(=N\c2ccc([N+](=O)[O-])cc2)S/C1=C\c1ccc(Cl)cc1
13

###

System: Candida albicans
Method Description: Antifungal activity against Candida albicans MTCC 227 at 200 ug/ml by cup-plate method
Format: functional
Condition Set: read-out: DIZ
List of zone of inhibition at 200 µg/mL values.
// return numeric value only (unit: mm, not printed)

Entry Smiles	Target Or Test System	Measurement Name	Assay Value
O=C1N/C(=N\c2ccccc2[N+](=O)[O-])S/C1=C\c1ccccc1[N+](=O)[O-]	Candida albicans	zone of inhibition at 200 µg/mL	23
O=C1N/C(=N\c2ccccc2[N+](=O)[O-])S/C1=C\c1cccc([N+](=O)[O-])c1	Candida albicans	zone of inhibition at 200 µg/mL	14
O=C1N/C(=N\c2ccccc2[N+](=O)[O-])S/C1=C\c1ccccc1	Candida albicans	zone of inhibition at 200 µg/mL	13

Could you now look at the following molecule, please?
Respond only with zone of inhibition at 200 µg/mL recorded for O=C1N/C(=N\c2ccccc2[N+](=O)[O-])S/C1=C\c1ccccc1Cl
18

###

Test system: Bacillus subtilis
Method Description: Antibacterial activity against Bacillus subtilis MTCC 121 at 100 ug/ml by cup plate method
Format: functional
Condition Set: read-out: DIZ
Measurement Name: zone of inhibition at 100 µg/mL (mm)
// return numeric value only (unit: mm, not printed)

Example cases with answers are listed next.
Compound	Unit Of Measurement	zone of inhibition at 100 µg/mL
O=C1N/C(=N\c2ccc([N+](=O)[O-])cc2)S/C1=C\c1cccc([N+](=O)[O-])c1	mm	12
O=C1N/C(=N\c2ccccc2[N+](=O)[O-])S/C1=C\c1cccc([N+](=O)[O-])c1	mm	15

Could you now look at the following compound, please?
Respond only with zone of inhibition at 100 µg/mL recorded for O=C1N/C(=N\c2ccc([N+](=O)[O-])cc2)S/C1=C\c1ccc(Cl)cc1
16

###

List of zone of inhibition at 200 µg/mL values.
Test system: Staphylococcus aureus
Method Description: Antibacterial activity against Staphylococcus aureus MTCC 96 at 200 ug/ml by cup-plate method
Format: functional
Condition Set: read-out: DIZ
// return numeric value only (unit: mm, not printed)

Example cases with answers are listed next.
Entry Smiles	Unit Of Measurement	zone of inhibition at 200 µg/mL
O=C1N/C(=N\c2ccccc2[N+](=O)[O-])S/C1=C\c1cccc([N+](=O)[O-])c1	mm	14
O=C1N/C(=N\c2ccc([N+](=O)[O-])cc2)S/C1=C\c1ccc(O)cc1	mm	13
COc1cc(/C=C2\S/C(=N/c3ccc([N+](=O)[O-])cc3)NC2=O)ccc1O	mm	16
O=C1N/C(=N\c2ccc([N+](=O)[O-])cc2)S/C1=C\c1ccccc1[N+](=O)[O-]	mm	16
O=C1N/C(=N\c2ccc([N+](=O)[O-])cc2)S/C1=C\c1ccccc1Cl	mm	17
COc1cc(/C=C2\S/C(=N/c3ccccc3[N+](=O)[O-])NC2=O)ccc1O	mm	8
O=C1N/C(=N\c2ccccc2[N+](=O)[O-])S/C1=C\c1ccc(O)cc1	mm	10
O=C1N/C(=N\c2ccc([N+](=O)[O-])cc2)S/C1=C\c1ccc(Cl)cc1	mm	15

Could you now look at the following compound, please?
Respond only with zone of inhibition at 200 µg/mL recorded for O=C1N/C(=N\c2ccccc2[N+](=O)[O-])S/C1=C\c1ccccc1
12

###

System: Bacillus subtilis
Method Description: Antibacterial activity against Bacillus subtilis MTCC 121 at 100 ug/ml by cup plate method
Assay type: functional
Condition Set: read-out: DIZ
List of zone of inhibition at 100 µg/mL values.
// return numeric value only (unit: mm, not printed)

Example cases with answers are listed next.
Entry Smiles	Unit Of Measurement	zone of inhibition at 100 µg/mL
O=C1N/C(=N\c2ccccc2[N+](=O)[O-])S/C1=C\c1ccccc1[N+](=O)[O-]	mm	9
O=C1N/C(=N\c2ccc([N+](=O)[O-])cc2)S/C1=C\c1ccccc1	mm	12
O=C1N/C(=N\c2ccccc2[N+](=O)[O-])S/C1=C\c1ccc(O)cc1	mm	10

Respond only with zone of inhibition at 100 µg/mL recorded for O=C1N/C(=N\c2ccc([N+](=O)[O-])cc2)S/C1=C\c1ccccc1[N+](=O)[O-]
12

Respond only with zone of inhibition at 100 µg/mL recorded for COc1cc(/C=C2\S/C(=N/c3ccc([N+](=O)[O-])cc3)NC2=O)ccc1O
12

###

List of zone of inhibition at 300 µg/mL values.
Tested on: Staphylococcus aureus
Method Description: Antibacterial activity against Staphylococcus aureus MTCC 96 at 300 ug/ml by cup-plate method
Assay type: functional
Condition Set: read-out: DIZ
// return numeric value only (unit: mm, not printed)

Example cases with answers are listed next.
Entry Smiles	Assay Value
O=C1N/C(=N\c2ccccc2[N+](=O)[O-])S/C1=C\c1ccccc1[N+](=O)[O-]	14
O=C1N/C(=N\c2ccc([N+](=O)[O-])cc2)S/C1=C\c1ccccc1	16
COc1cc(/C=C2\S/C(=N/c3ccc([N+](=O)[O-])cc3)NC2=O)ccc1O	17

Could you now look at the following molecule, please?
Respond only with zone of inhibition at 300 µg/mL recorded for O=C1N/C(=N\c2ccc([N+](=O)[O-])cc2)S/C1=C\c1ccccc1Cl
19

###

List of zone of inhibition at 200 µg/mL values.
System: Pseudomonas aeruginosa
Method Description: Antibacterial activity against Pseudomonas aeruginosa MTCC 2453 at 200 ug/ml by cup-plate method
Assay type: functional
Condition Set: read-out: DIZ
// return numeric value only (unit: mm, not printed)

Example cases with answers are listed next.
Entry Smiles	zone of inhibition at 200 µg/mL [mm]
O=C1N/C(=N\c2ccc([N+](=O)[O-])cc2)S/C1=C\c1ccccc1Cl	16
COc1cc(/C=C2\S/C(=N/c3ccc([N+](=O)[O-])cc3)NC2=O)ccc1O	15
O=C1N/C(=N\c2ccccc2[N+](=O)[O-])S/C1=C\c1ccccc1	8
O=C1N/C(=N\c2ccccc2[N+](=O)[O-])S/C1=C\c1ccc(Cl)cc1	17

Could you now look at the following compound, please?
Using Pseudomonas aeruginosa as the test system, report measured zone of inhibition at 200 µg/mL of O=C1N/C(=N\c2ccccc2[N+](=O)[O-])S/C1=C\c1ccccc1[N+](=O)[O-] .
13

###

Tested on: Staphylococcus aureus
Method Description: Antibacterial activity against Staphylococcus aureus MTCC 96 at 200 ug/ml by cup-plate method
Type: functional
Condition Set: read-out: DIZ
List of zone of inhibition at 200 µg/mL values.
// return numeric value only (unit: mm, not printed)

Entry Smiles	Target Or Test System	Unit Of Measurement	Assay Value
O=C1N/C(=N\c2ccc([N+](=O)[O-])cc2)S/C1=C\c1ccccc1	Staphylococcus aureus	mm	14

Respond only with zone of inhibition at 200 µg/mL recorded for O=C1N/C(=N\c2ccccc2[N+](=O)[O-])S/C1=C\c1ccccc1Cl
14

Respond only with zone of inhibition at 200 µg/mL recorded for O=C1N/C(=N\c2ccccc2[N+](=O)[O-])S/C1=C\c1ccccc1[N+](=O)[O-]
13

Respond only with zone of inhibition at 200 µg/mL recorded for O=C1N/C(=N\c2ccccc2[N+](=O)[O-])S/C1=C\c1ccc(Cl)cc1
16

Respond only with zone of inhibition at 200 µg/mL recorded for O=C1N/C(=N\c2ccc([N+](=O)[O-])cc2)S/C1=C\c1cccc([N+](=O)[O-])c1
16

###

System: Bacillus subtilis
Method Description: Antibacterial activity against Bacillus subtilis MTCC 121 at 300 ug/ml by cup plate method
Format: functional
Condition Set: read-out: DIZ
Measurement Name: zone of inhibition at 300 µg/mL (mm)
// return numeric value only (unit: mm, not printed)

Example cases with answers are listed next.
Entry Smiles	Target Or Test System	Measurement Name	Assay Value
COc1cc(/C=C2\S/C(=N/c3ccccc3[N+](=O)[O-])NC2=O)ccc1O	Bacillus subtilis	zone of inhibition at 300 µg/mL	12
O=C1N/C(=N\c2ccccc2[N+](=O)[O-])S/C1=C\c1ccccc1	Bacillus subtilis	zone of inhibition at 300 µg/mL	13
O=C1N/C(=N\c2ccc([N+](=O)[O-])cc2)S/C1=C\c1ccc(Cl)cc1	Bacillus subtilis	zone of inhibition at 300 µg/mL	18
O=C1N/C(=N\c2ccccc2[N+](=O)[O-])S/C1=C\c1ccc(O)cc1	Bacillus subtilis	zone of inhibition at 300 µg/mL	11
O=C1N/C(=N\c2ccc([N+](=O)[O-])cc2)S/C1=C\c1cccc([N+](=O)[O-])c1	Bacillus subtilis	zone of inhibition at 300 µg/mL	15

Respond only with zone of inhibition at 300 µg/mL recorded for O=C1N/C(=N\c2ccc([N+](=O)[O-])cc2)S/C1=C\c1ccccc1Cl
17

Respond only with zone of inhibition at 300 µg/mL recorded for O=C1N/C(=N\c2ccc([N+](=O)[O-])cc2)S/C1=C\c1ccccc1[N+](=O)[O-]
15

Respond only with zone of inhibition at 300 µg/mL recorded for O=C1N/C(=N\c2ccc([N+](=O)[O-])cc2)S/C1=C\c1ccccc1
15

Respond only with zone of inhibition at 300 µg/mL recorded for O=C1N/C(=N\c2ccccc2[N+](=O)[O-])S/C1=C\c1ccccc1Cl
18

Respond only with zone of inhibition at 300 µg/mL recorded for O=C1N/C(=N\c2ccccc2[N+](=O)[O-])S/C1=C\c1cccc([N+](=O)[O-])c1
22

Respond only with zone of inhibition at 300 µg/mL recorded for O=C1N/C(=N\c2ccccc2[N+](=O)[O-])S/C1=C\c1ccccc1[N+](=O)[O-]
10

Respond only with zone of inhibition at 300 µg/mL recorded for O=C1N/C(=N\c2ccccc2[N+](=O)[O-])S/C1=C\c1ccc(Cl)cc1
16

Respond only with zone of inhibition at 300 µg/mL recorded for COc1cc(/C=C2\S/C(=N/c3ccc([N+](=O)[O-])cc3)NC2=O)ccc1O
15

Respond only with zone of inhibition at 300 µg/mL recorded for O=C1N/C(=N\c2ccc([N+](=O)[O-])cc2)S/C1=C\c1ccc(O)cc1
15
